system: TK-10 renal; assay: NCI tumour cell line growth inhibition, 48 h
measured.quantity: TGI

Worked set:
[
  {
    "compound": "CC(=O)O.[Au].c1ccc([PH+](c2ccccc2)c2ccccc2)cc1",
    "study.target": "TK-10 renal",
    "TGI": "6.74 µM"
  },
  {
    "compound": "COc1cccc(N2C(=O)[C@H]3CC(C)c4c([nH]c5ccccc45)[C@H]3C2=O)c1 (stereo not given in full)",
    "study.target": "TK-10 renal",
    "TGI": "> 100 µM"
  },
  {
    "compound": "COc1cc2c3c(n(CCNCCCNCCn4c5c(c6cc(OC)c(OC)cc6c4=O)C(=O)c4ccccc4-5)c(=O)c2cc1OC)-c1ccccc1C3=O",
    "study.target": "TK-10 renal",
    "TGI": "21.7 µM"
  }
]

Dear reader, for each entry below, please note its TGI.
1. CC1(C)CC(=O)C(/C=N/c2nc(-c3ccccc3)cs2)=C(O)C1
2. COc1ccccc1N1CCN(CCCN2/C(=C(\O)c3ccccc3)C(=O)c3c(C)cc(C)nc3S2(=O)=O)CC1
3. CC(C)c1ccc(C(c2ccc(OCC(=O)O)cc2)c2ccc(C(C)C)cc(=O)c2O)c(O)c(=O)c1
4. Cc1nc2ccccc2c(=O)n1-c1ccccc1F
5. C=C1CCC23CC(CC[C@@H]2[C@@]12C[C@@H](c1ccoc1)OC2=O)OC3=O (stereo not given in full)
6. CC1ON2CCCC2[C@H]1C(=O)N1C2CC3CCC2(CS1(=O)=O)C3(C)C (stereo not given in full)
7. CCO/N=C(/N)c1ncn(Cc2ccccc2)c1NCC(OCC)OCC

Reply |
> 100 µM
> 100 µM
42.8 µM
> 100 µM
> 100 µM
> 100 µM
> 100 µM
